test system: Escherichia coli; test: Antimicrobial activity against Escherichia coli MTCC 724; format: functional
MEASURED QUANTITY: MIC (µg/mL)
Express your answer in µg/mL, writing the number without its unit.

Known results for compounds:
O=C(N[C@H](CO)[C@H](O)c1ccc([N+](=O)[O-])cc1)C(Cl)Cl	10
N/C(=N\O)C1CC(c2ccccc2)=NN1c1ccccc1 (stereo not given)	50

Q: Look at this compound and give its reported MIC. "c1ccc(-c2cc(-c3noc(-c4ccccc4)n3)n(-c3ccccc3)n2)cc1"
Result: 40

Q: Look at this compound and give its reported MIC. N/C(=N\O)C1CC(c2ccc(O)cc2)=NN1c1ccccc1 (stereo not given)
Result: 15

Q: Look at this compound and give its reported MIC. COc1ccc(C2=NN(c3ccccc3)C(/C(N)=N/O)C2)cc1 (stereo not given)
Result: 55

----------
system: Escherichia coli; assay: Antimicrobial activity against Escherichia coli MTCC 724 at 100 ug/ml after 24 hrs by agar disc diffusion method; format: functional; conditions: MTCC 724, 24 h, read-out: DIZ
Below, each entry is listed with its recorded zone of inhibition at 100 µg/mL.
Express your answer in mm, writing the number without its unit.

Known results for molecules:
Clc1ccc(C2=NN(c3ccccc3)C(c3noc(-c4ccccc4)n3)C2)cc1 (stereo not given)	10
COc1ccc(C2=NN(c3ccccc3)C(c3noc(-c4ccccc4)n3)C2)cc1 (stereo not given)	8
c1ccc(-c2cc(-c3noc(-c4ccccc4)n3)n(-c3ccccc3)n2)cc1	6
COc1ccc(C2=NN(c3ccccc3)C(/C(N)=N/O)C2)cc1 (stereo not given)	8
COc1cc(-c2nc(C3CC(c4ccc(O)cc4)=NN3c3ccccc3)no2)cc(OC)c1OC (stereo not given)	16

Q: Look at this molecule and give its reported zone of inhibition at 100 µg/mL. COc1ccc(C2=NN(c3ccccc3)C(c3noc(-c4ccccc4OC)n3)C2)cc1 (stereo not given)
Result: 8

Q: Look at this molecule and give its reported zone of inhibition at 100 µg/mL. Clc1ccc(C2=NN(c3ccccc3)C(c3noc(-c4ccc(Cl)cc4)n3)C2)cc1 (stereo not given)
Result: 10

Q: Look at this molecule and give its reported zone of inhibition at 100 µg/mL. Clc1ccc(-c2nc(C3CC(c4ccccc4)=NN3c3ccccc3)no2)cc1 (stereo not given)
Result: 18

Q: Look at this molecule and give its reported zone of inhibition at 100 µg/mL. COc1ccccc1-c1nc(C2CC(c3ccccc3)=NN2c2ccccc2)no1 (stereo not given)
Result: 6

Q: Look at this molecule and give its reported zone of inhibition at 100 µg/mL. N/C(=N\O)C1CC(c2ccc(O)cc2)=NN1c1ccccc1 (stereo not given)
Result: 16

----------
tested on: Bacillus cereus; experiment: Antimicrobial activity against Bacillus cereus MTCC 8372 at 100 ug/ml after 24 hrs by agar disc diffusion method; format: functional; conditions: MTCC 8372, 24 h, read-out: DIZ
MEASURED QUANTITY: zone of inhibition at 100 µg/mL (mm)
Express your answer in mm, writing the number without its unit.

Known results for compounds:
Clc1ccc(C2=NN(c3ccccc3)C(c3noc(-c4ccc(Cl)cc4)n3)C2)cc1 (configuration not stated)	12
COc1ccc(C2=NN(c3ccccc3)C(/C(N)=N/O)C2)cc1 (configuration not stated)	16
COc1ccc(C2=NN(c3ccccc3)C(c3noc(-c4ccc(OC)c(OC)c4)n3)C2)cc1 (configuration not stated)	16

Q: Look at this compound and give its reported zone of inhibition at 100 µg/mL. O=C(N[C@H](CO)[C@H](O)c1ccc([N+](=O)[O-])cc1)C(Cl)Cl [CHLORAMPHENICOL]
Result: 18

Q: Look at this compound and give its reported zone of inhibition at 100 µg/mL. Oc1ccc(C2=NN(c3ccccc3)C(c3noc(-c4ccc(O)cc4)n3)C2)cc1 (configuration not stated)
Result: 10
